- target: recombinant form of Glutaminase 1 (GAC) (Homo sapiens, UniProt O94925)
- assay overview: Recombinant Enzyme Assay - Time Dependence (60 minutes enzyme/compound preincubation)
- Type: biochemical
- experimental context: read-out: GAC Delta N2 IC50 60 min
Measured IC50 accompanies every entry in the list below.
metric name: IC50

1. CCCC(=O)OCN(C(=O)Cc1cccc(CNC(=O)OC(C)(C)C)c1)c1nnc(CCCCc2ccc(NC(=O)Cc3ccccc3)nn2)s1: > 20 µM
2. O=C(Cc1ccccc1)Nc1ccc(CCCCc2nnc(NC(=O)Cc3cccc(OCc4ccccn4)c3)s2)nn1: > 20 µM
3. CC(NC(=O)OC(C)(C)C)c1cc(CC(=O)Nc2nnc(CCCCc3ccc(NC(=O)Cc4ccccc4)nn3)s2)ccc1F (stereo not shown): 0.005 µM
4. CCCC(=O)OCN(C(=O)Cc1ccccc1)c1nnc(CCCCc2ccc(NC(=O)Cc3cccc(OC(F)(F)F)c3)nn2)s1: > 20 µM

###

- target: recombinant form of Glutaminase 1 (GAC) (Homo sapiens)
- assay overview: Recombinant Enzyme Assay (GAC coupled to GDH, NADH absorbance, no preincubation)
- Assay type: biochemical
- experimental context: no preincubation; read-out: GAC Delta N2 IC50 no preinc
Measured IC50 accompanies every entry in the list below.
metric name: IC50

1. CC(C)(C)OC(=O)N[C@@H](C(=O)Nc1nnc(CCSCCc2nnc(NC(=O)[C@H](NC(=O)OC(C)(C)C)c3ccccc3)s2)s1)c1ccccc1: > 50 µM
2. O=C(Cc1coc2ccccc12)Nc1nnc(CCSCCc2nnc(NC(=O)Cc3coc4ccccc34)s2)s1: > 20 µM
3. CC1(C)OC(=O)[C@@H](CC(=O)Nc2nnc(CCSCCc3nnc(NC(=O)C[C@H]4OC(C)(C)OC4=O)s3)s2)O1: > 20 µM

###

- target: recombinant form of Glutaminase 1 (GAC) (Homo sapiens, UniProt O94925)
- assay overview: Recombinant Enzyme Assay (GAC coupled to GDH, NADH absorbance, no preincubation)
- Type: biochemical
- experimental context: no preincubation; read-out: GAC Delta N2 IC50 no preinc
metric name: IC50

1. CN(C(=O)Cc1ccccc1)c1nnc(CCSCCc2nnc(N(C)C(=O)Cc3ccccc3)s2)s1: > 50 µM
2. CC(=O)Nc1nnc(CCSCCc2nnc(N)s2)s1: > 20 µM
3. O=C(Nc1nnc(CCCCc2nnc(NC(=O)[C@H](O)[C@@H](O)c3ccccc3)s2)s1)[C@H](O)[C@@H](O)c1ccccc1: > 20 µM

###

- target: recombinant form of Glutaminase 1 (GAC) (Homo sapiens, UniProt O94925)
- assay overview: Recombinant Enzyme Assay (GAC coupled to GDH, NADH absorbance, no preincubation)
- Type: biochemical
- experimental context: no preincubation; read-out: GAC Delta N2 IC50 no preinc
metric name: IC50

1) O=C(Nc1nnc(CCSCCc2nnc(NC(=O)C3CCc4ccccc4C3)s2)s1)C1CCc2ccccc2C1 (stereo not shown): > 50 µM
2) O=C(Nc1nnc(CCCCc2nnc(NC(=O)C3CC4CCC3C4)s2)s1)C1CC2CCC1C2 (stereo not shown): > 50 µM
3) COc1ccccc1-c1cccc(CC(=O)Nc2nnc(CCCCc3nnc(NC(=O)Cc4cccc(-c5ccccc5OC)c4)s3)s2)c1: > 20 µM
4) CC(C)[C@H](NC(=O)OC(C)(C)C)C(=O)Nc1nnc(CCSCCc2nnc(NC(=O)[C@@H](NC(=O)OC(C)(C)C)C(C)C)s2)s1: > 50 µM
5) O=C(Nc1nnc(CCSCCc2nnc(NC(=O)[C@@H]3CCCN3C(=O)C(F)(F)F)s2)s1)[C@@H]1CCCN1C(=O)C(F)(F)F: > 50 µM
6) O=C(OCC(C(=O)Nc1nnc(CCCCc2nnc(NC(=O)C(COC(=O)C3CCN(C(=O)OCc4ccccc4)CC3)c3ccccc3)s2)s1)c1ccccc1)C1CCN(C(=O)OCc2ccccc2)CC1 (stereo not shown): > 20 µM
7) CCOC(=O)Nc1nnc(CCSCCc2nnc(NC(=O)OCC)s2)s1: > 20 µM
8) O=C(Cc1cccc(-n2cccc2)c1)Nc1nnc(CCCCc2nnc(NC(=O)Cc3cccc(-n4cccc4)c3)s2)s1: > 20 µM
9) CC(C)(C)OC(=O)Nc1cccc(CC(=O)Nc2nnc(CCCCc3nnc(NC(=O)Cc4cccc(NC(=O)OC(C)(C)C)c4)s3)s2)c1: > 20 µM
10) CC(C)(C)c1ccc(CC(=O)Cc2nnc(CCCCc3nnc(NC(=O)Cc4ccc(C(C)(C)C)cc4)s3)s2)cc1: > 20 µM

###

Measured IC50 accompanies every entry in the list below.
- target: recombinant form of Glutaminase 1 (GAC) (Homo sapiens, UniProt O94925)
- assay overview: Recombinant Enzyme Assay (GAC coupled to GDH, NADH absorbance, no preincubation)
- Type: biochemical
- experimental context: no preincubation; read-out: GAC Delta N2 IC50 no preinc
metric name: IC50 (µM)

1. O=C(Nc1nnc(CCSCCc2nnc(NC(=O)[C@H](O)c3ccccc3)s2)s1)[C@H](O)c1ccccc1: 10
2. O=C(Cc1cc2ccccc2o1)Nc1nnc(CCCCc2nnc(NC(=O)Cc3cc4ccccc4o3)s2)s1: 10
3. O=C(Nc1nnc(CCSCCc2nnc(NC(=O)C3Oc4ccccc4O3)s2)s1)C1Oc2ccccc2O1: 14
4. O=C(Nc1nnc(CCSCCc2nnc(NC(=O)c3ccccc3CO)s2)s1)c1ccccc1CO: 8.8

Values were extracted from patent US8604016B2.
